Data provenance is BigSolDB 2.1.

settings: in acetonitrile, 298.15 K
metric: solubility (mole fraction)
No unit in the answer, only the number.

Query string: Form field: reported solubility (mole fraction) of OC[C@H]1O[C@@H](Oc2c(O)cc(O)cc2/C=C/c2ccc(O)cc2)[C@H](O)[C@@H](O)[C@@H]1O
Result string: 0.00639

====

settings: in THF, 303.15 K
metric: solubility (mole fraction)
No unit in the answer, only the number.

Query string: Form field: reported solubility (mole fraction) of OC[C@H]1O[C@@H](Oc2c(O)cc(O)cc2/C=C/c2ccc(O)cc2)[C@H](O)[C@@H](O)[C@@H]1O
Result string: 0.0331

====

settings: in n-propanol, 288.15 K
metric: solubility (mole fraction)

Query string: Form field: reported solubility (mole fraction) of OC[C@H]1O[C@@H](Oc2c(O)cc(O)cc2/C=C/c2ccc(O)cc2)[C@H](O)[C@@H](O)[C@@H]1O
Result string: 0.00977

====

settings: in THF, 278.15 K
metric: solubility (mole fraction)
No unit in the answer, only the number.

Query string: Form field: reported solubility (mole fraction) of OC[C@H]1O[C@@H](Oc2c(O)cc(O)cc2/C=C/c2ccc(O)cc2)[C@H](O)[C@@H](O)[C@@H]1O
Result string: 0.0128

====

settings: in methanol, 308.15 K
metric: solubility (mole fraction)
No unit in the answer, only the number.

Query string: Form field: reported solubility (mole fraction) of OC[C@H]1O[C@@H](Oc2c(O)cc(O)cc2/C=C/c2ccc(O)cc2)[C@H](O)[C@@H](O)[C@@H]1O
Result string: 0.0261

====

settings: in THF, 308.15 K
metric: solubility (mole fraction)

Query string: Form field: reported solubility (mole fraction) of OC[C@H]1O[C@@H](Oc2c(O)cc(O)cc2/C=C/c2ccc(O)cc2)[C@H](O)[C@@H](O)[C@@H]1O
Result string: 0.0393
